So I've got a bunch of compounds here, and I need their melting point values.

Before answering, review these 5 worked examples.
                                   compound    test_result
0  O=C(Nc1ccc2[nH]ncc2c1)[C@H]1CCN(Cc2ccccc2)C1  203 to 204 °C
1  COc1ccc(C(=O)N2CCC(C(=O)Nc3ccc4[nH]ncc4c3)C2)cc1 (stereo not shown)  242 to 244 °C
2  O=C(Nc1ccc2[nH]ncc2c1)C1CCN(C(=O)c2ccc(Cl)cc2)C1 (stereo not shown)  225 to 227 °C
3  Cc1ccc(C(=O)N2CCC(C(=O)Nc3ccc4[nH]ncc4c3)C2)cc1 (stereo not shown)  224 to 226 °C
4  O=C(Nc1ccc2[nH]ncc2c1)[C@@H]1CCCN1Cc1ccccc1  202 to 203 °C

For each of the compounds below, state melting point.
1. Cc1ccc(CN2CCC[C@@H]2C(=O)Nc2ccc3[nH]ncc3c2)cc1
2. O=C(Nc1ccc2[nH]ncc2c1)C1CCN(C(=O)c2ccc(Br)cc2)C1 (stereo not shown)
3. Cc1ccc(CN2CCCC2C(=O)Nc2ccc3[nH]ncc3c2)cc1 (stereo not shown)
4. O=C(Nc1ccc2[nH]ncc2c1)[C@H]1CCCN1Cc1ccccc1

Solution:
203 to 205 °C
250 to 251 °C
200 to 202 °C
199 to 201 °C

---

Consider the following compounds; for each one, report its melting point.

>>> print(df.to_string())
                                   compound    result_type    test_result
0  O=C(Nc1ccc2[nH]ncc2c1)C1CCCN1Cc1ccccc1 (stereo not shown) [Compound 2a]  melting point  200 to 201 °C
1  O=C(Nc1ccc2[nH]ncc2c1)C1CCN(C(=O)c2ccccc2)C1 (stereo not shown) [Compound 5a]  melting point  211 to 213 °C
2  O=C(Nc1ccc2[nH]ncc2c1)[C@@H]1CCN(Cc2ccccc2)C1 [Compound 4i]  melting point  203 to 204 °C

Lab note: next compound to report on.
Exercise: Requested field: melting point. Item: O=C(Nc1ccc2cn[nH]c2c1)[C@@H]1CCCN1Cc1ccccc1 [Compound 3c]
Solution: 195 to 197 °C
